targetOfAssay: UniProt:Q9GZN0
Sequence (Q9GZN0 whole entry): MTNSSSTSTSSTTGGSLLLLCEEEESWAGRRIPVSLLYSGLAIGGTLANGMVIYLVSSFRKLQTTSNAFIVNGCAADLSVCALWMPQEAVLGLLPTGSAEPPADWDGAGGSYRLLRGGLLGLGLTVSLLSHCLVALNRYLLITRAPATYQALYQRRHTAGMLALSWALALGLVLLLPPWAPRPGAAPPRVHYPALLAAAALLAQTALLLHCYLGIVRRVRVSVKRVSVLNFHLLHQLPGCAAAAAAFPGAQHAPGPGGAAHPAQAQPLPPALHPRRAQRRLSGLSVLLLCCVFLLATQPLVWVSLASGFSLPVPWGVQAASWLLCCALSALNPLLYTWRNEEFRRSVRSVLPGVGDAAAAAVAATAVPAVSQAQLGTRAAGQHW
experimentalProtocol: 96-well calcium mobilization assay in stable PPLS-HA-GPR88-Gαqi5-CHO cells
Type: cell-based
resultType: EC50 (nM)
// note: answer is a bare numeric in nM

Given item CCCc1ccc(-c2ccc(N(C[C@H](N)CC(C)C)C(=O)[C@@H]3C[C@H]3c3ccccc3)cc2)cc1 , the value recorded as its EC50 is 2630

Given item CCCc1ccc(-c2ccc(N(C[C@@H](N)[C@@H](C)CC)C(=O)[C@@H]3C[C@H]3c3ccccc3)cc2)cc1 , the value recorded as its EC50 is 1260

Given item CCCc1ccc(-c2ccc(N(C[C@@H](N)CC(C)C)C(=O)[C@@H]3C[C@H]3c3ccccc3)cc2)cc1 , the value recorded as its EC50 is 1320

Given item CC[C@H](C)[C@H](N)CN(C(=O)[C@@H]1C[C@H]1c1ccccc1)c1ccc(-c2ccc(C3CCCCC3)cc2)cc1 , the value recorded as its EC50 is 794
